- Test system: SK-OV-3 ovarian
- Experiment Notes: NCI-60 one-dose screen, 48 h
- Condition Details: 10 µM unless noted
Compounds without any hit were thinned out: in the full panel of roughly 83,000, 20% have a hit. Calls of active or inactive are those of the source. The calls were made as follows: active = growth percent below 10; inactive = the rest.
Form entry, call: pick from active, inactive

CS(=O)(=O)c1ccc(-c2nc3ccccc3n2CC(=O)N/N=C/c2ccccc2)cc1    inactive

Turning now to a further record.
Q: Could you check what this test reported for NS(=O)(=O)c1ccc(C(=O)NN2C(=O)c3ccccc3C2=O)cc1 ?
A: inactive

###

- Tested on: HS 578T breast
- Experiment Notes: NCI-60 one-dose screen, 48 h (100 = growth as untreated, 0 = no growth, -100 = all killed)
- Condition Details: 10 µM unless noted
The panel holds about 83,000 compounds, 20% with a hit somewhere; the sample as a whole holds those more often.
Outcome Measure: growth (%)
Only the number, expressed in %, is required.

Previously resolved entries follow.
CCN1CCN(CCNc2nccc(-c3c(-c4ccc(F)c(O)c4)nc4occn34)n2)S1(=O)=O    42.6
Nc1nc(N)c2c(n1)NC(c1cccc(Nc3ccnc4cc(C(F)(F)F)ccc34)c1)CC(c1ccc3c(c1)OCO3)=N2 (centres undefined)    66.9
CS(=O)(=O)Nc1cc(-c2ccc3ncnc(Nc4ccc(F)c(Cl)c4)c3c2)ccc1Cl    18.9
O=c1c2ccccc2n(C[C@H]2CO2)c2ccccc12    6.14
Cc1ccc2nc(-c3ccc(C(=O)N/N=C/c4ccc([N+](=O)[O-])cc4)cc3)[nH]c2c1    105

Q: Using the record for Cc1ccc(S(=O)(=O)OCC#CCOS(=O)(=O)c2ccc(C)cc2)cc1 , report its growth.
A: 62.4

Q: Using the record for O=C(C1=Cc2cc3ccccc3n2Cc2cnnn21)c1ccc(F)cc1 , report its growth.
A: 90.8

Q: Using the record for CCN(CC)c1ccc(-c2cc(-c3cc(OC)c(OC)c(OC)c3)nc(N3CCC(O)CC3)c2C#N)cc1 , report its growth.
A: -13.8

Q: Using the record for OC1(c2ccccc2)c2ccccc2N(c2ccccc2)c2ccc(Cl)cc21 (centres undefined) , report its growth.
A: 4.35

###

- Test system: MDA-MB-435 melanoma
- Experiment Notes: NCI-60 one-dose screen, 48 h
- Condition Details: 10 µM unless noted
- Procedure: Growth inhibition of the MDA-MB-435 human Melanoma tumor cell line is measured as a screen for anti-cancer activity. Cells are grown in 96 well plates and exposed to the test compound for 48 hours. Compounds are tested at a single concentration, which is 10^-5 M for most compounds. The reported endpoint is percent growth (GI% or GIPRCNT), where numbers from 0 - 100% represent growth inhibition, and numbers from -100% - 0 represent cell death. […]
This is part of a sample that, as a whole, favours compounds with a hit. Of some 83,000 tested, about 20% had one in any assay. Calls of active or inactive are those of the source. How the source made its calls: active means growth percent below 10; inactive means the rest.
Form entry, call: pick from Yes (active), No (inactive)

Reference set (3 entries):
O=c1cc(CP(=O)(O)O)c2cc(O)c(-c3ccccc3)cc2o1    No
COc1ccc(C/C(C)=C(\c2ccc(O)cc2)c2ccc(OCCN3CCCCC3)cc2)cc1    No
COc1ccc(-c2cc(-c3cn(-c4cccc(Cl)c4)nc3-c3ccc(OC)cc3)on2)cc1    No

Q: Could you check what this test reported for COc1ccc2c(O)c(/C=C3\N=Nc4ncccc43)oc2c1C[C@@H]1CCNC[C@H]1F ?
A: Yes

Q: Could you check what this test reported for COc1ccc(/C=C2\CN(C(=O)C(Cl)Cl)C/C(=C\c3ccc(OC)c(OC)c3)C2=O)cc1OC ?
A: Yes

Q: Could you check what this test reported for Cc1c2ncccc2nc2[nH]c3ccc(OCCN(C)C)cc3c12 ?
A: No

Q: Could you check what this test reported for COC(=O)c1ccc2cc(OC)c(OC)cc2c1 ?
A: No

// data source = PubChem BioAssay (NCI)
